# MEASURED ON: glucose-6-phosphate dehydrogenase-6-phosphogluconolactonase (Plasmodium falciparum 3D7)
# ASSAY PROCEDURE: PfG6PD enzyme inhibitors, kinetic NADPH readout, dose response, orthogonal assay, biochemical, kinetic NADPH detection (AID 540269)
# ASSAY CONDITIONS: purified PfG6PD-6PGL
Activity calls are given as the source filed them. How the calls were made is not given here.
Entry note: the call must match one of yes (1) for active, no (0) for inactive

These solved cases illustrate the format of a correct answer.
COMPOUND: c1cncc(CNc2ccc3c(c2)OCO3)c1
MEASURED ON: glucose-6-phosphate dehydrogenase-6-phosphogluconolactonase (Plasmodium falciparum 3D7)
LABEL VALUE: no (0)

COMPOUND: CC1=CC(=NOC(=O)/C=C/c2ccccc2)C=C(C)C1=O
MEASURED ON: glucose-6-phosphate dehydrogenase-6-phosphogluconolactonase (Plasmodium falciparum 3D7)
LABEL VALUE: no (0)

COMPOUND: CCOC(=O)c1sc(NC(=O)CSc2nnc(Cc3ccccc3)o2)c(C#N)c1C
MEASURED ON: glucose-6-phosphate dehydrogenase-6-phosphogluconolactonase (Plasmodium falciparum 3D7)
LABEL VALUE: no (0)

Request: Status in this test for "[O-]/[N+](=C\c1ccccc1)c1ccc(Br)cc1" ?
Response: no (0)

Request: Status in this test for "O=C(Nc1nnc(S(=O)(=O)N2CCCCC2)s1)c1ccc(Cl)cc1" ?
Response: yes (1)
